B1: H2-Kb / Ed16-30 (parent complex)
chain 1: GEQVEQRPPHLSVREGDSAVIICTYTDPNSYYFFWYKQEPGAGLQLLMKVFSSTEINEGQGFTVLLNKKDKQLSLNLTAAHPGDSAVYFCAVSEPSSGQKLVFGQGTILKVYL
chain 2: EAAVTQSPRNKVAVTGGKVTLSCNQTNNHNNMYWYRQDTGHGLRLIHYSYGAGSTEKGDIPDGYKASRPSQENFSLILELATPSQTSVYFCAGRDTGQLYFGEGSKLTVL
chain 3: not shown
chain 4: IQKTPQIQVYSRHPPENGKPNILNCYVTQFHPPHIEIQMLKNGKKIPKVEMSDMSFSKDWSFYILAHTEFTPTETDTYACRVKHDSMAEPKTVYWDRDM
chain 5: SIINFEKL

Variants of: B1
protocol_summary: % of reporter cells activated (NFAT-GFP), raw; note: test concentration or dose not given here
Each item that follows carries a reported ratio to parent.
readout: ratio to parent

[[record]]
variant_label = "chain 5 N4A"
assay_value = 0.0158

[[record]]
variant_label = "chain 5 E6A"
assay_value = 0.508

[[record]]
variant_label = "chain 5 S1C"
assay_value = 0.186

[[record]]
variant_label = "chain 5 S1Q"
assay_value = 0.323

[[record]]
variant_label = "chain 5 E6D"
assay_value = 1.28

[[record]]
variant_label = "chain 5 F5E"
assay_value = 0.752

[[record]]
variant_label = "chain 5 S1N"
assay_value = 0.522

[[record]]
variant_label = "chain 5 I3N"
assay_value = 0.507

[[record]]
variant_label = "chain 5 I2M"
assay_value = 1.31

[[record]]
variant_label = "chain 5 L8H"
assay_value = 1.06

